- System: galium
- ASSAY NOTES: Test C postemergence
- Format: in vivo, Galium aparine
- MEASUREMENT PARAMETERS: Postemergence, 1000 g ai/ha; 0 to 100 scale, 0 no effect, 100 complete control
RECORDED ENDPOINT: Plant response rating, Galium

1. CC1(C)CN(C(=O)c2ccnc(-n3cncn3)c2)c2ccccc2O1 | 0
2. O=C(c1cccc(-n2cncn2)c1)N1CC2(CC2)Oc2ccccc21 | 40
3. C[C@H]1CN(C(=O)c2cccc(N3CCOCC3)c2)c2cccc(Cl)c2O1 | 20
4. Cc1cc(-c2cccc(C(=O)N3C[C@H](C)Oc4c(C)cccc43)c2)ccn1 | 0

====

- Test system: corn
- ASSAY NOTES: Test A postemergence
- Type: in vivo, Zea mays
- MEASUREMENT PARAMETERS: Zea mays, post-emergence, 240 h, 125 g ai/ha, postemergence, 10 days, 0 to 100 scale (0 no effect, 100 complete control); read-out: Corn plant response rating
RECORDED ENDPOINT: plant injury at 125 g/ha (%)

1) Cc1ccc(-n2ncnc2C)cc1C(=O)N1C[C@H](C)Oc2c(Cl)cccc21 (single isomer, unassigned) [Compound 126] | 0
2) Cc1cccc2c1O[C@@H](C)CN2C(=O)c1cccc(-n2cnc(C3CCCC3)n2)c1 [Compound 80] | 10
3) Cc1ccc(-n2cnc(C3CCC3)n2)cc1C(=O)N1C[C@H](C)Oc2c(Cl)cccc21 [Compound 96] | 10
4) CC(C)c1ncn(-c2cc(C(=O)N3C[C@H](C)Oc4c(Cl)cccc43)c3ccccc3c2)n1 [Compound 146] | 10
5) CCc1ccc(-n2cnc(C(C)C)n2)cc1C(=O)N1C[C@H](C)Oc2c(Cl)cccc21 [Compound 94] | 80
6) CCc1ncn(-c2ccc(OC)c(C(=O)N3C[C@H](C)Oc4c(Cl)cccc43)c2)n1 [Compound 88] | 90

====

- System: pigweed, palmer
- ASSAY NOTES: Test C preemergence
- Format: in vivo, Amaranthus palmeri
- MEASUREMENT PARAMETERS: 500 g ai/ha, preemergence; 0 to 100 scale (0 no effect, 100 complete control)
RECORDED ENDPOINT: Pigweed, Palmer plant response rating

1) Cc1ncn(-c2ccc(F)c(C(=S)N3C[C@H](C)Oc4c(C)cccc43)c2)n1 [Compound 362] | 100
2) CC(C)Oc1ncn(-c2cccc(C(=O)N3C[C@H](C)Oc4c(Cl)cccc43)c2)n1 [Compound 312] | 70
3) COC[C@H]1CN(C(=O)c2cc(-n3cnc(C4CCC4)n3)ccc2C)c2cccc(Cl)c2O1 [Compound 267] | 100
4) CCOCc1ncn(-c2ccc(C)c(C(=O)N3C[C@H](C)Oc4c(Cl)cccc43)c2)n1 [Compound 294] | 90
5) Cc1cccc2c1OC(C(F)(F)F)CN2C(=O)c1ccnc(-n2cnc(C(C)C)n2)c1 (single isomer, unassigned) [Compound 320] | 100
6) COC[C@H]1CN(C(=O)c2cc(-n3cnc(C(C)C)n3)ccc2C)c2cccc(Cl)c2O1 [Compound 313] | 100
7) COC[C@H]1CN(C(=O)c2cc(-n3cnc(C4CCC4)n3)cc3c2OCCO3)c2cccc(Cl)c2O1 [Compound 380] | 100
8) Cc1cccc2c1OC(C(F)(F)F)CN2C(=O)c1ccnc(-n2cnc(C(C)C)n2)c1 (single isomer, unassigned) [Compound 328] | 100
9) CCOC[C@H]1CN(C(=O)c2cc(-n3cnc(C(C)(C)C)n3)cc3c2OCCO3)c2cccc(Cl)c2O1 [Compound 388] | 100
10) COC[C@H]1CN(C(=O)c2cc(-n3cnc(C(C)(C)O)n3)ccc2C)c2cccc(Cl)c2O1 [Compound 276] | 100
11) COCc1ncn(-c2ccc(C)c(C(=O)N3C[C@H](C)Oc4c(Cl)cccc43)c2)n1 [Compound 357] | 100
12) Cc1ccc(-n2cnc(C(C)O)n2)cc1C(=O)N1CC(C)Oc2c(Cl)cccc21 (mixture of isomers) [Compound 358] | 100
13) C=C(C)c1cc(C(=O)N2C[C@H](C)Oc3c(Cl)cccc32)cc(-n2cncn2)c1 [Compound 317] | 90

====

- System: oat, wild
- ASSAY NOTES: Test A postemergence
- Format: in vivo, Avena fatua
- MEASUREMENT PARAMETERS: 500 g ai/ha, Postemergence; 0 to 100 scale
Kindly apply the following: condition met if Plant response rating, Oat, Wild is less than 30, condition not met in every other case.

1. Cc1ccc(C(=O)N2CC(C)Oc3c(Cl)cccc32)cc1-n1cncn1 (stereo not drawn) | condition not met
2. C[C@H]1CN(C(=O)c2cccc(-n3cncn3)c2)c2cccc(C#N)c2O1 | condition not met
3. CC1CN(C(=O)c2cc(-n3cncn3)ccc2F)c2cccc(Cl)c2O1 (stereo not drawn) | condition not met
4. CC1CN(C(=O)c2cccc(-n3cncn3)c2)c2cccc(C3CC3)c2O1 (stereo not drawn) | condition met
5. Cc1cccc2c1O[C@@H](C)CN2C(=O)c1cccc(-n2ncnc2C(C)C)c1 | condition met

====

# Lookup of reported Plant response rating, Oat, Wild keyed by entry
- Test system: oat, wild
- ASSAY NOTES: Test C postemergence
- Format: in vivo, Avena fatua
- MEASUREMENT PARAMETERS: 500 g ai/ha, postemergence, 10 days, 0 to 100 scale (0 no effect, 100 complete control)
RECORDED ENDPOINT: Plant response rating, Oat, Wild

1) COC(C)c1ncn(-c2ccc(C)c(C(=O)N3CC(C)Oc4c(Cl)cccc43)c2)n1 (mixture of isomers) [Compound 359] | 90
2) CCOC[C@H]1CN(C(=O)c2cc(-n3cnc(CC)n3)ccc2C)c2cccc(Cl)c2O1 [Compound 412] | 50
3) C[C@H]1CN(C(=O)c2cccc(-n3cnc(OS(C)(=O)=O)n3)c2)c2cccc(Cl)c2O1 [Compound 356] | 20
4) CCOC[C@H]1CN(C(=O)c2cc(-n3cnc(C(C)C)n3)ccc2C)c2cccc(Cl)c2O1 [Compound 340] | 20
5) CC(C)c1ncn(-c2ccc(OS(=O)(=O)C(F)(F)F)c(C(=O)N3C[C@H](C)Oc4c(Cl)cccc43)c2)n1 [Compound 339] | 0
6) CC(C)c1ncn(-c2ccc([S+](C)[O-])c(C(=O)N3C[C@H](C)Oc4c(Cl)cccc43)c2)n1 (stereo partly shown) [Compound 394] | 70
7) Cc1ccc(-n2cnc(CC#N)n2)cc1C(=O)N1C[C@H](C)Oc2c(Cl)cccc21 [Compound 364] | 70

====

- Tested on: ragweed
- ASSAY NOTES: Test C preemergence
- Format: in vivo, Ambrosia artemisiifolia
- MEASUREMENT PARAMETERS: Test C, preemergence, 125 g ai/ha; 0 to 100 scale (0 no effect, 100 complete control)
# Lookup of reported Ragweed plant response rating keyed by entry
RECORDED ENDPOINT: Ragweed plant response rating

1) CC(C)=C(C)c1ncn(-c2cccc(C(=O)N3C[C@H](C)Oc4c(C)cccc43)c2)n1 [Compound 262] | 0
2) Cc1ccc(-n2cnc(C(C)C)n2)cc1C(=O)N1CC(C(F)(F)F)Oc2c(Cl)cccc21 (single isomer, unassigned) [Compound 291] | 40
3) COC(=O)N(C)c1ncn(-c2cccc(C(=O)N3C[C@H](C)Oc4c(C)cccc43)c2)n1 [30 0] | 0
4) Cc1cccc2c1OC(C)CN2C(=O)c1cccc(-n2ncnc2C2CC2)c1 (racemic) [Compound 196] | 0
5) Cc1ccc(-n2cnc(C(C)(F)F)n2)cc1C(=O)N1C[C@H](C)Oc2c(Cl)cccc21 [Compound 248] | 80
6) CCn1cnc(-c2cccc(C(=O)N3C[C@H](C)Oc4c(Cl)cccc43)c2)n1 [Compound 173] | 30
7) CCc1ccc(-n2cnc(C(C)(C)O)n2)cc1C(=O)N1C[C@H](C)Oc2c(Cl)cccc21 [Compound 277] | 30
8) Cc1cccc2c1O[C@H](C)CN2C(=O)c1cccc(-c2ncn(C(C)C)n2)c1 [Compound 221] | 0
9) C[C@H]1CN(C(=O)c2cc(-n3cnc(C4CC4)n3)cc3c2OCCO3)c2cccc(Cl)c2O1 [Compound 156] | 70
10) COc1cc(-n2cnc(C(C)C)n2)cc(C(=O)N2C[C@H](C)Oc3c(Cl)cccc32)c1OC [Compound 194] | 20
11) Cc1ccc(-n2cnc(C(C)C)n2)cc1C(=O)N1C[C@H](C)Oc2c1cccc2C(F)(F)F [Compound 170] | 20
12) Cc1ccc(-n2cnc(CS(C)(=O)=O)n2)cc1C(=O)N1C[C@H](C)Oc2c(Cl)cccc21 [Compound 225] | 70
13) COc1cc(C(=O)N2C[C@H](C)Oc3c(Cl)cccc32)cc(-n2cnc(C3CC3)n2)c1 [Compound 216] | 0
14) COc1ccc(-n2cncn2)cc1C(=O)N1C[C@H](C)Oc2c(F)cccc21 [Compound 270] | 10
15) CC(C)c1ncn(-c2ccc([S+]([O-])C(F)(F)F)c(C(=O)N3C[C@H](C)Oc4c(Cl)cccc43)c2)n1 (some centres unmarked) [Compound 191] | 0
16) Cc1cccc2c1O[C@@H](C)CN2C(=O)c1cccc(-n2nccn2)c1 [Compound 282] | 0
17) Cc1ccc(-n2cnc(C(C)C)n2)cc1C(=O)N1C[C@H](C)Oc2c(F)cccc21 [Compound 242] | 0
18) Cc1cccc2c1O[C@@H](C)CN2C(=O)c1cccc(-n2cnc(C(C)(C)O)n2)c1 [Compound 278] | 70
19) COc1ccc(-n2cnc(C(C)(C)O)n2)cc1C(=O)N1C[C@H](C)Oc2c(Cl)cccc21 [Compound 254] | 80
20) COC[C@H]1CN(C(=O)c2cc(-n3cnc(C(C)(C)O)n3)ccc2C)c2cccc(Cl)c2O1 [Compound 276] | 60
